All figures here come from patent US20260206755A1.

System: Anopheles stephensi
Experiment: Anopheles stephensi treated well plate contact test: knockdown and mortality
Type: in vivo
Details: Anopheles stephensi, 24 h, read-out: mortality % 24, without TFNA-AM
VALUE TYPE: mortality at 0.2 ppm (%)
Expressed in %, but write only the number.

- COMPOUND: "CNC(=O)Oc1cccc2c1OC(C)(C)O2 [Bendiocarb]"
  mortality at 0.2 ppm [%]: 60
- COMPOUND: "COP(=S)(OC)Oc1ccc([N+](=O)[O-])c(C)c1 [Fenitrothion]"
  mortality at 0.2 ppm [%]: 20
- COMPOUND: "CCOC(=O)CC(SP(=S)(OC)OC)C(=O)OCC (stereo not shown) [Malathion]"
  mortality at 0.2 ppm [%]: 0

Consider the record given below.
Which measured mortality at 0.2 ppm value corresponds to CNC(=O)Oc1ccccc1OC(C)C [Propoxur] ?
100
